# Test system: HS 578T breast
# measurement notes: NCI tumour cell line growth inhibition, 48 h; in the data active means GI50 below about 0.43 µM; inactive means the rest
Classes used: active, inactive

| compound | group label |
| --- | --- |
| CN(C)CCC=C1c2ccccc2C(C)(C)c2ccccc21 | inactive |
| Fc1ccc(-c2nn3c(-c4cc(C(F)(F)F)cc(C(F)(F)F)c4)nnc3s2)cc1 | inactive |
| O=c1c2c(c3ccccc3n1-c1ccccc1)NC(=S)NC2c1ccc(Cl)cc1 (stereo not given) | inactive |
| COc1ccc(-c2nc(Nc3ccc(-c4nc5ccccc5[nH]4)cc3)nc(N3CCOCC3)n2)cc1 | inactive |
| C[N+](C)(CCCCCC[N+](C)(C)CCCN1C(=O)c2cc3ccccc3cc2C1=O)CCCN1C(=O)c2cc3ccccc3cc2C1=O | inactive |
| CCCCCCC/C=C/[C@H]1O[C@]2(O)C(=O)C=C3C[C@@H](O[C@@H]4O[C@H](CO)[C@@H](O)C(O)[C@@H]4O)C[C@@H]3[C@H]2C=C1C (stereo not given in full) | inactive |
| O=[N+]([O-])c1ccc(Sc2nc(Cl)nc(NC3CCCC3)n2)cc1 | inactive |
| CCOC(=O)c1ccc2c(c1)nc(/C=C/c1ccc(Cl)cc1)n2-c1cc(C(C)(C)C)[nH]n1 | inactive |
| COC(C(=O)C(O)C(C)O)C1Cc2cc3cc(OC4CC(OC5CC(O)C(O)C(C)O5)C(O)C(C)O4)c(C)c(O)c3c(O)c2C(=O)C1OC1CC(OC2CC(O)C(OC3CC(C)(O)C(O)C(C)O3)C(C)O2)C(O)C(C)O1 (stereo not given) | inactive |
| CCCCCc1cc[n+](CC(=O)c2ccc([N+](=O)[O-])cc2)cc1 | inactive |
| O=C(N=Nc1c(O)[nH]c2ccccc12)c1oc2ccccc2c1CN1CCN(c2ccccc2)CC1 | inactive |
| O=C1CCCCC=C1C[N+](=O)[O-] | inactive |
| Cc1ccc(/C=C/C(=N/N=C(N)N)c2ccccc2)cc1 | inactive |
| CCN(CC)CCOc1ccc(/C=C2\C[C@H]3[C@H]4CC=C5C[C@@H](O)CC[C@]5(C)[C@H]4CC[C@]3(C)[C@H]2O)cc1OC | inactive |
| Nc1nc2c(nnn2C2OC(CO)C(O)C2O)c(=O)[nH]1 (stereo not given) | inactive |
| O=C(c1ccco1)c1c(C(F)(F)F)nc2ccc(C(F)(F)F)cc2[n+]1[O-] | inactive |
| NC1CCC(Nc2nc(NCc3cc(Cl)ccc3O)c3ncn(C4CCCC4)c3n2)CC1 (stereo not given) | active |
| CCCC[n+]1c(/C=C\c2c(OC)cc(OC)cc2OC)ccc2ccccc21 | inactive |
| O=c1c2cccc(F)c2sc2c(N3CCNCC3)nc3ccccc3c12 | inactive |
| CCCCCCCCCCCCCCCC(=O)N[C@H](/C=C/[C@H](O)CCCCCCCCCCCCC)CO | inactive |

====

# Test system: SNB-75 CNS
# measurement notes: NCI tumour cell line growth inhibition, 48 h
Record true whenever TGI is at 8 µM or higher; record false when lower.

| compound | group label |
| --- | --- |
| COc1ccc(N2C(=O)c3c(c4[nH]c5ccc(OC)cc5c4c4ccc(C(C)(C)C)cc34)C2=O)cc1 | true |
| CCOC(=O)c1ccc2c(c1)nc(/C=C/c1ccc(Cl)cc1)n2-c1cc(C(C)(C)C)[nH]n1 | false |
| CN(C)CCC(CCN(C)C)=NOC(=O)c1ccccc1 | true |
| COc1cc2cc(C(=O)N3CC(CCl)c4c3cc(NCCN)c3ccccc43)[nH]c2c(OC)c1OC (stereo not drawn) | false |
| O=C(N=Nc1c(O)[nH]c2ccccc12)c1oc2ccccc2c1CN1CCN(c2ccccc2)CC1 | false |
| N#Cc1cc([N+](=O)[O-])ccc1NC(=O)C(F)(F)F | true |
| C=C1CC[C@@H]2[C@](C)(COC(C)=O)[C@H](OC(C)=O)CC[C@@]2(C)[C@@H]1CC(Nc1ccc(S(=O)(=O)Nc2cc(C)on2)cc1)C1=CCOC1=O (stereo partly drawn) | true |
| CNc1cc2nc3cc(NC)c(C)cc3cc2cc1C | true |
| COc1c2c(cc3c1OCO3)C13C=CC(OC)CC1N(CC3)C2 (stereo not drawn) | true |
| Cn1c2ccccc2c(=O)c2c(O)cc3c(c21)CC(C1(C)CO1)O3 (stereo not drawn) | true |
| CC1=NN2C(c3ccc(C)cc3)=CSC2=NC(C)(C)C1 | true |
| Nc1c(C(=O)N/N=C/c2ccc(Cl)cc2)sc(=S)n1-c1ccccc1 | true |
| CCCCCCCCCCC/C=C\C[C@H](O)C/C=C1/C(=O)C=C[C@@H]1C/C=C\CCCC(=O)OC | false |
| CC(=O)c1ccc(Nc2nc(Nc3ccc(F)cc3)nc(Nc3ccc(F)cc3)n2)cc1 | true |
| CSc1nc2c(nc(N)n2C2OC(COC(C)=O)C(OC(C)=O)C(OC(C)=O)C2OC(C)=O)c(=O)n1C (stereo not drawn) | true |
| NCCCn1c2c(c3ccc([N+](=O)[O-])cc3c1=O)C(=O)c1cc(-c3ccccc3)ccc1-2 | false |
| NC1(C(=O)O)CCc2ccc(N(CCCl)CCCl)cc2C1 (stereo not drawn) | true |

====

# Tested on: MOLT-4 leukemia
# measurement notes: NCI tumour cell line growth inhibition, 48 h

| compound | GI50 |
| --- | --- |
| COC(=O)C[CH2][Ge]([CH3])([CH3])[S]c1ccccc1 | 8.31 µM |
| CC(=O)[CH-]C(=O)c1ccccc1.CC(=O)[CH-]C(=O)c1ccccc1.CC[C@H](/C=C/C(C)[C@H]1CCC2[C@@H]3CC=C4C[C@@H]([O-])CC[C@]4(C)C3CC[C@@]21C)C(C)C.CC[O-].[Ti+4] (stereo partly specified) | > 100 µM |
| Clc1cc2c(nn1)Nc1ccccc1S2 | > 100 µM |
| C[N+](C)(CCCCCC[N+](C)(C)CCCN1C(=O)c2cc3ccccc3cc2C1=O)CCCN1C(=O)c2cc3ccccc3cc2C1=O | > 37.5 µM |
| O=C(N=Nc1c(O)[nH]c2ccccc12)c1oc2ccccc2c1CN1CCN(c2ccccc2)CC1 | 1.96 µM |
| CCC(C)[C@H](NC(=O)NC(=O)NC(=O)CI)C(=O)OC (stereo partly specified) | 2.47 µM |

====

# Tested on: U251 CNS
# measurement notes: NCI tumour cell line growth inhibition, 48 h
Measured TGI, listed per entry for reference.

| molecule | TGI |
| --- | --- |
| Cc1c(-c2ccccc2)c(C#N)c2nnn(C3CCCCC3)c(=O)n12 | > 100 µM |
| COC(=O)C(CC(C)=O)CS(=O)(=O)CC(=O)C(=O)Nc1cccc([N+](=O)[O-])c1 (stereo not given) | > 100 µM |
| O=[N+]([O-])c1ccc(Sc2nc(Cl)nc(NC3CCCC3)n2)cc1 | > 10 µM |
| Cc1cc(C)n2c(-c3ccccc3)c(C)cc2n1 | > 100 µM |
| CC(C)(C)OC(=O)NCCC(=O)NC1(c2cc3ccccc3s2)CCCCC1 | 37.7 µM |

====

# Tested on: DU-145 prostate
# measurement notes: NCI tumour cell line growth inhibition, 48 h

| compound | TGI |
| --- | --- |
| CCCCCc1cc[n+](CC(=O)c2ccc([N+](=O)[O-])cc2)cc1 | 37.8 µM |
| O=[N+]1ON=C(c2ccccc2)C1=C1C(c2c(-c3ccccc3)no[n+]2[O-])=NON1[O-] | > 100 µM |
| CN1CC[C@]2(c3cccc(O)c3)CC(=O)/C(=C/c3ccccc3)[C@H]1C2 | 11.3 µM |
| O=c1cc(N2CCCC2)[nH]c(=O)n1-c1ccc(F)cc1 | > 100 µM |
| O=c1c(C2=NCCC2)c(-c2ccc[nH]2)[nH]n1-c1ccccc1 | > 100 µM |
| CCOC(=O)c1ccc2c(c1)nc(/C=C/c1ccc(Cl)cc1)n2-c1cc(C(C)(C)C)[nH]n1 | > 100 µM |
| C=C1COC(O)(C2OCOC(C3CC(=O)NC(=O)C3)C2O)C1C (centres undefined) | 0.0616 µM |
| c1ccc(Nc2nc(-c3ccccn3)cs2)nc1 | > 100 µM |
| O=C(O)C1C2C=CC(C2)C1C(=O)O (centres undefined) | > 100 µM |

====

# Tested on: RXF-631 renal
# measurement notes: NCI tumour cell line growth inhibition, 48 h
measured metric: TGI

| molecule | value observed |
| --- | --- |
| CN(C)CCC(CCN(C)C)=NOC(=O)c1ccccc1 | > 100 µM |
| Cc1ccc(S(=O)(=O)N2c3ccccc3[C@H]3CCC=C[C@H]32)cc1 | > 100 µM |
| CC(=O)OCC1=C(C(=O)O)C(c2ccc3c(c2)OCO3)c2cc3c(cc2O1)OCO3 (stereo not given) | > 100 µM |
| CC(=O)O[C@H]1C=CC(=O)C(C)CC1C (stereo not given in full) | > 100 µM |
| NC(=O)c1ncn(CCN2CCN(C(=O)NCCCCCCNC(=O)N3CCN(CCn4cnc(C(N)=O)c4N)CC3)CC2)c1N | > 100 µM |
| C=C1C(=O)O[C@@H]2[C@H]1CCC(C)=C1C=CC(=O)[C@]12C | 23.6 µM |
| COC(=O)NN1C(C)=C(C(=O)OC)C2(C#N)C(C(=O)OC)=C(C)N(NC(=O)OC)C12N (stereo not given) | > 100 µM |
| Cn1c2ccccc2c(=O)c2c(O)cc3c(c21)CC(C1(C)CO1)O3 (stereo not given) | > 33.6 µM |
| CC1(c2cccc(N)c2)C2C(=O)NC(=O)C1C(=O)NC2=O (stereo not given) | > 100 µM |
| c1ccc(N=c2nc(N3CCOCC3)ss2)cc1 | 31.7 µM |
